Experiment: Quantum yield measurements
Assay type: biochemical
Settings: coelenterazine-cp
ASSAY_METRIC: Quantum Yield (%) cp
Give bare numbers, in %.

Some solved entries appear below for comparison.
- MOLECULE: "C124A/M253L: RLuc mutant C124A/M253L (protein) MASKVYDPEQRKRMITGPQWWARCKQMNVLDSFINYYDSEKHAENAVIFLHGNAASSYLWRHVVPHIEPVARCIIPDLIGMGKSGKSGNGSYRLLDHYKYLTAWFELLNLPKKIIFVGHDWGAALAFHYSYEHQDKIKAIVHAESVVDVIESWDEWPDIEEDIALIKSEEGEKMVLENNFFVETMLPSKIMRKLEPEEFAAYLEPFKEKGEVRRPTLSWPREIPLVKGGKPDVVQIVRNYNAYLRASDDLPKLFIESDPGFFSNAIVEGAKKFPNTEFVKVKGLHFSQEDAPDEMGKYIKSFVERVLKNEQ"
  READOUT_UNIT: "%"
  Quantum Yield (%) cp: 5.1
- MOLECULE: "C124A/S130A: RLuc mutant C124A/S130A (protein) MASKVYDPEQRKRMITGPQWWARCKQMNVLDSFINYYDSEKHAENAVIFLHGNAASSYLWRHVVPHIEPVARCIIPDLIGMGKSGKSGNGSYRLLDHYKYLTAWFELLNLPKKIIFVGHDWGAALAFHYAYEHQDKIKAIVHAESVVDVIESWDEWPDIEEDIALIKSEEGEKMVLENNFFVETMLPSKIMRKLEPEEFAAYLEPFKEKGEVRRPTLSWPREIPLVKGGKPDVVQIVRNYNAYLRASDDLPKMFIESDPGFFSNAIVEGAKKFPNTEFVKVKGLHFSQEDAPDEMGKYIKSFVERVLKNEQ"
  READOUT_UNIT: "%"
  Quantum Yield (%) cp: 5.0

Here is another molecule to look at.
# input molecule: C124A/S287L: RLuc mutant C124A/S287L (protein) MASKVYDPEQRKRMITGPQWWARCKQMNVLDSFINYYDSEKHAENAVIFLHGNAASSYLWRHVVPHIEPVARCIIPDLIGMGKSGKSGNGSYRLLDHYKYLTAWFELLNLPKKIIFVGHDWGAALAFHYSYEHQDKIKAIVHAESVVDVIESWDEWPDIEEDIALIKSEEGEKMVLENNFFVETMLPSKIMRKLEPEEFAAYLEPFKEKGEVRRPTLSWPREIPLVKGGKPDVVQIVRNYNAYLRASDDLPKMFIESDPGFFSNAIVEGAKKFPNTEFVKVKGLHFLQEDAPDEMGKYIKSFVERVLKNEQ ; wanted: its Quantum Yield (%) cp
7.2

Every entry's value here was drawn from patent US7842469B2.
